target: T1, HLA-DR11 (HLA-DRB1*11:01) (human); test: competition ELISA vs biotin-HA 306-318;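 note: HLA and competitor incubated 24 to 72 h, maximal signal taken from wells lacking competitor, background from wells lacking HLA molecule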
T1 construct: mature; purified from homozygous EBV-transformed lymphoblastoid cells with antibody L243
No end group written: not given here.
Quick list: relative affinity per entry.
Number only, please.

The examples below pair each entry with its known result.
SKIGEVDVEQHTLAK-NH2 [CCNB1 310-324]
190
AKMPMKKEAKPSATG-NH2 [CCNB1 58-72]
40

Now look at this entry.
Please look at this binder and report its relative affinity: QGLTKHMTVKNKYAT-NH2 [CCNB1 392-406]
693
